Experiment: Murine plasma protein binding (RED method)
Type: in vitro ADME
Settings: mouse
value-kind: recovery at 5 h, 10 uM

Check out these entries, answers already filled in.
>  <compound>
COc1ccc(N2C(=O)N(c3c(C)csc3Cl)Cc3cnc(Nc4ccc(C5CCN(C)CC5)cc4OC)nc32)nc1

>  <result>
40%

$$$$
>  <compound>
COc1ccc(N2C(=O)N(c3c(C(F)F)csc3Cl)Cc3cnc(Nc4ccc(C5CCN(C)CC5)cc4)nc32)nc1

>  <result>
38%

$$$$
>  <compound>
COc1ccc(N2C(=O)N(c3c(C)cccc3Cl)Cc3cnc(Nc4ccc(C5CCN(C)CC5)cc4OC)nc32)nc1 [PY1, reference compound]

>  <result>
42%

$$$$

Query: recovery at 5 h, 10 uM; subject: COc1ccc(N2C(=O)N(c3c(CF)csc3Cl)Cc3cnc(Nc4ccc(C5CCN(C)CC5)cc4)nc32)nc1
45%
